Hey, just so you know, these numbers are from patent US9248202B2.

Test: Solubility in HEPES buffer by fluorescence method
Type: physicochemical
Conditions: aqueous buffer; HEPES buffer ([HEPES]=20 mM, pH 7.0)
readout-type: solubility
State the value, then name its unit.

Query (molecule): `COCCOCCOCCOc1ccc2c(ccc3cc(C(=O)N4CCN(C(=O)c5ccc(CNC(=O)c6cc7cc8ccc(N(C)C)cc8cc7oc6=O)nc5)CC4)c(=O)oc32)c1` ; field requested: solubility
8 µM
